- Experimental Target: Prostaglandin D2 receptor 2 (Homo sapiens)
- Sequence (Q9Y5Y4 whole entry): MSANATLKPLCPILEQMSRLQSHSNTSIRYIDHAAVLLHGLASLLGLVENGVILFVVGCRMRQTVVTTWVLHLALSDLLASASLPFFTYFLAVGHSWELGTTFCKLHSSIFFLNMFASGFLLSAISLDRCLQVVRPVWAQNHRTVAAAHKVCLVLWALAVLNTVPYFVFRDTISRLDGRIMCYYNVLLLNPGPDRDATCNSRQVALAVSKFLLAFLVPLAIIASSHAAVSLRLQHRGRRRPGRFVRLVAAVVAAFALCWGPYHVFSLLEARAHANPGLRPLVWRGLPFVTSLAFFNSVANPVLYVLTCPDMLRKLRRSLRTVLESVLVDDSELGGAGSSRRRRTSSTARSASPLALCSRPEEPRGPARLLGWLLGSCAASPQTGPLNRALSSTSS
- Test Description: Inhibition of PGD2-induced inositol phosphate formation at human chemoattractant receptor-homologous molecule expressed on TH2 cells
- Type: functional, cell-based
Assay Endpoint: IC50 (nM)

{"Compound": "CN([C@@H]1CCc2c(c3ccccc3n2CCC(=O)O)C1)S(=O)(=O)c1ccc(F)cc1", "IC50, nM": 26}

[I] O=C(O)Cn1c2c(c3ccccc31)C[C@H](NS(=O)(=O)c1ccc(F)cc1)CC2
[II] O=C(O)CCn1c2c(c3ccccc31)C[C@H](NS(=O)(=O)c1ccc(F)cc1)CC2 [RAMATROBAN]
Recorded IC50 values differ for I and II ; which one is higher? Return value: the label identifying the chosen record.
II
(II: 29 nM, I: 3.8 nM)

----------
- Experimental Target: Prostaglandin D2 receptor (Homo sapiens)
- Sequence (Q13258 whole entry): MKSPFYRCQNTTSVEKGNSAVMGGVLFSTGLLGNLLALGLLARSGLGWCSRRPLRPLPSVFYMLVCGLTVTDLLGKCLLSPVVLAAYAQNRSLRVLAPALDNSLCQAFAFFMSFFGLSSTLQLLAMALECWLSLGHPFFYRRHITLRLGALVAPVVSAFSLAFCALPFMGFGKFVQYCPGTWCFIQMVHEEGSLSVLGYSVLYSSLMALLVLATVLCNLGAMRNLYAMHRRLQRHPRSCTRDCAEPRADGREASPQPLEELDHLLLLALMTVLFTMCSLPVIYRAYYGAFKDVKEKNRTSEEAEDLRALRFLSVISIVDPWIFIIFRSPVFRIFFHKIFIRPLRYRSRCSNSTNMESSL
- Test Description: Inhibition of PGD2-induced inositol phosphate formation at human Prostaglandin D2 receptor
- Format: functional
pIC50: −log10 of the molar value.
Assay Endpoint: pIC50

{"Compound": "CN([C@@H]1CCc2c(c3ccccc3n2CCC(=O)O)C1)S(=O)(=O)c1ccc(F)cc1", "pIC50": "< 5.00"}
{"Compound": "O=C(O)CCn1c2c(c3ccccc31)C[C@H](NS(=O)(=O)c1ccc(F)cc1)CC2 [RAMATROBAN]", "pIC50": "< 5.00"}

// query pIC50 value for entry O=C(O)Cn1c2c(c3ccccc31)C[C@H](NS(=O)(=O)c1ccc(F)cc1)CC2
< 5.00

----------
- Experimental Target: Prostaglandin D2 receptor (Homo sapiens, UniProt Q13258)
- Test Description: Inhibition of [3H]-PGD-2 binding to human Prostaglandin D2 receptor
pKi: −log10 of the molar value.
Assay Endpoint: pKi

{"Test Smiles": "CN([C@@H]1CCc2c(c3ccccc3n2CCC(=O)O)C1)S(=O)(=O)c1ccc(F)cc1", "pKi": 5.21}
{"Test Smiles": "O=C(O)Cn1c2c(c3ccccc31)C[C@H](NS(=O)(=O)c1ccc(F)cc1)CC2", "pKi": 5.28}

----------
- Experimental Target: Prostaglandin D2 receptor 2 (Homo sapiens)
- Test Description: Inhibition of beta-arrestin translocation at human chemoattractant receptor-homologous molecule expressed on TH2 cells in BRET assay
- Format: functional, cell-based
Assay Endpoint: IC50 (nM)

[a] O=C(O)CCn1c2c(c3ccccc31)C[C@H](NS(=O)(=O)c1ccc(F)cc1)CC2
[b] CN([C@@H]1CCc2c(c3ccccc3n2CCC(=O)O)C1)S(=O)(=O)c1ccc(F)cc1
[c] O=C(O)Cn1c2c(c3ccccc31)C[C@H](NS(=O)(=O)c1ccc(F)cc1)CC2
Order these compounds (above) by their IC50, from the smallest value upward. Reply format: the labels, ordered as requested.
c, b, a
(c: 3.8 nM, b: 15 nM, a: 28 nM)

----------
- Experimental Target: Prostaglandin D2 receptor 2 (Homo sapiens)
- Test Description: Inhibition of [3H]PGD-2 binding to human chemoattractant receptor-homologous molecule expressed on Th2 cells (CRTH2)
Assay Endpoint: Ki (nM)

{"Molecule": "O=C(O)CCn1c2c(c3ccccc31)C[C@H](NS(=O)(=O)c1ccc(F)cc1)CC2 [RAMATROBAN]", "Quantitative Result": 4.3}

[P] O=C(O)Cn1c2c(c3ccccc31)C[C@H](NS(=O)(=O)c1ccc(F)cc1)CC2
[Q] CN([C@@H]1CCc2c(c3ccccc3n2CCC(=O)O)C1)S(=O)(=O)c1ccc(F)cc1
Input pair: P , Q . Output: entry with lower Ki. Return value: the label identifying the chosen record.
P

----------
- Experimental Target: UniProt P21731
- Sequence (P21731 whole entry): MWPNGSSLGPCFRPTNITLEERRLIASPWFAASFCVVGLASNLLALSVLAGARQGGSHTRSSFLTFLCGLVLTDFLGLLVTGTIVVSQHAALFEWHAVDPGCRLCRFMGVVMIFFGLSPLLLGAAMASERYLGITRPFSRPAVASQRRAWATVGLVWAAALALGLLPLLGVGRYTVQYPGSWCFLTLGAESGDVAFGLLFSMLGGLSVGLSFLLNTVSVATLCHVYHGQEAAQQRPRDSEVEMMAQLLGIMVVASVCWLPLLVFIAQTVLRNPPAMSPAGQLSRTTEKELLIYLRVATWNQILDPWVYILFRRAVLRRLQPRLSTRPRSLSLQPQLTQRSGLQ
- Test Description: Inhibition of U-46,619-induced inositol phosphate accumulation at human Thromboxane A2 receptor
- Assay type: functional
pIC50: −log10 of the molar value.
Assay Endpoint: pIC50

{"Test Smiles": "CN([C@@H]1CCc2c(c3ccccc3n2CCC(=O)O)C1)S(=O)(=O)c1ccc(F)cc1", "Quantitative Result": 5.34}

[1] O=C(O)CCn1c2c(c3ccccc31)C[C@H](NS(=O)(=O)c1ccc(F)cc1)CC2
[2] O=C(O)Cn1c2c(c3ccccc31)C[C@H](NS(=O)(=O)c1ccc(F)cc1)CC2
Input pair: 1 , 2 . Output: entry with lower pIC50. Return value: the label identifying the chosen record.
2
